study_target: BACE1 (Homo sapiens, UniProt P56817)
Sequence (P56817 46-501, species assumed): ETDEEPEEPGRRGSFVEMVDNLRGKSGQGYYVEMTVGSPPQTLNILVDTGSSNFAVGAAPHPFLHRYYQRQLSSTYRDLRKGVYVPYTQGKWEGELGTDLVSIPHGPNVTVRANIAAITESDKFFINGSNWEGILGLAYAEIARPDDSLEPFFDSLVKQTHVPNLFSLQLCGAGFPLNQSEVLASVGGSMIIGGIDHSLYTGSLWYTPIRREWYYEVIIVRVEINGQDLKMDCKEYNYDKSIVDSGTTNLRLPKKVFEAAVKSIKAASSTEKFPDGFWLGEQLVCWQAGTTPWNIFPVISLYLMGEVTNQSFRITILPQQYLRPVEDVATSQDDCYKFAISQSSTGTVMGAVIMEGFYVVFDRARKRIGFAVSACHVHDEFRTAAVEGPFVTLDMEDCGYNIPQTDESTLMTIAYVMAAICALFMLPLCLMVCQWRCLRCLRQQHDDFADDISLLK
run_description: In vitro enzymatic BACE FRET assay
Assay type: biochemical
run_conditions: average IC50; read-out: BACE1 Enzyme assay IC50
Entries and their pIC50 values follow.
# log scale: pIC50 equals minus log10 of the concentration in mol/L

Use these answered entries as a reference point.
CC#CCOc1cnc(C(=O)Nc2ccc(F)c([C@@]3(C)N=C(N)[C@@]4(CF)CC[C@@H]3S4(=O)=O)c2)cn1    9.30
CC(C)(C)C#CCOc1cnc(C(=O)Nc2ccc(F)c([C@@]3(C)N=C(N)C4(CF)CCC3S4(=O)=O)c2)cn1 (stereo in doubt)    8.40
C[C@]1(c2cc(Nc3ncnc4cc(Cl)cnc34)ccc2F)N=C(N)[C@@]2(C)CC[C@@H]1S2(=O)=O    8.30
C[C@]1(c2cc(NC(=O)c3ncc(Cl)cc3Cl)ccc2F)N=C(N)[C@@]2(CF)CC[C@@H]1S2(=O)=O    8.70
Cc1cc(C(F)F)cnc1C(=O)Nc1ccc(F)c([C@@]2(C)N=C(N)[C@@]3(CF)CC[C@@H]2S3(=O)=O)c1    8.05

The compound identified as C[C@]1(c2cc(Nc3ncc(F)c4cc(Cl)cnc34)ccc2F)N=C(N)[C@@]2(CF)CC[C@@H]1S2(=O)=O registered its pIC50 at 8.70

The compound identified as C[C@]1(c2cc(Nc3ncc(F)c4cc(C#N)cnc34)ccc2F)N=C(N)[C@@]2(CF)CC[C@@H]1S2(=O)=O registered its pIC50 at 8.52

---

Test system: Aβ40 in conditioned medium of cells stably expressing Amyloid Precursor Protein (APP)
run_description: In vitro BACE cell-based assay (HEK cell assay, Aβ40 sandwich ELISA)
run_conditions: Homo sapiens, HEK293; average IC50; read-out: BACE1 cell assay IC50
pIC50: −log10 of the molar value.
Classification field: T = pIC50 at or over 8; F = pIC50 under 8.

Examples from the recorded data:
CC#Cc1ccc(C(=O)Nc2ccc(F)c([C@@]3(C)N=C(N)[C@@]4(C)CC[C@@H]3S4(=O)=O)c2)nc1 [Example 69]    T
C[C@]12CC[C@H]([C@@](C)(c3cc(NC(=O)c4ccc(C#N)cc4F)ccc3F)N=C1N)S2(=O)=O [Example 128]    F
Cc1cc(C(F)(F)F)cnc1C(=O)Nc1ccc(F)c([C@@]2(CF)N=C(N)[C@@]3(C)CC[C@@H]2S3(=O)=O)c1 (single isomer, unassigned) [Example 114]    F

Query compound follows.
Given CC(C)(C)C#CCOc1cnc(C(=O)Nc2ccc(F)c([C@@]3(C)N=C(N)C4(CF)CCC3S4(=O)=O)c2)cn1 (stereo in doubt) [Example 38] , state whether its pIC50 is at least 8.
F

---

study_target: BACE1 (Homo sapiens)
run_description: In vitro enzymatic BACE FRET assay
Format: biochemical
run_conditions: average IC50; read-out: BACE1 Enzyme assay IC50
Entries and their IC50 values follow.
Report the value in nM with no unit label.

Cc1cc(Cl)cnc1C(=O)Nc1ccc(F)c([C@@]2(C)N=C(N)[C@]3(CF)CC[C@H]2S3(=O)=O)c1    16
C[C@]1(c2cc(NC(=O)c3ccc(C(F)(F)F)cn3)ccc2F)N=C(N)[C@@]2(CF)CC[C@@H]1S2(=O)=O    6
COc1ccc(C(=O)Nc2ccc(F)c([C@@]3(C)N=C(N)[C@@]4(C)CC[C@@H]3S4(=O)=O)c2)c(F)c1    130
C[C@]1(c2cc(Nc3nccc4cc(C#N)cnc34)ccc2F)N=C(N)[C@@]2(C)CC[C@@H]1S2(=O)=O    2
C[C@]1(c2cc(Nc3ncnc4cc(C#N)cnc34)ccc2F)N=C(N)[C@@]2(CF)CC[C@@H]1S2(=O)=O    8
C[C@]12CC[C@H]([C@@](C)(c3cc(NC(=O)c4ccc(C#CC5CC5)cn4)ccc3F)N=C1N)S2(=O)=O    7

Moving on to another molecule below.
The molecule identified as CC#CCOc1cnc2c(Nc3ccc(F)c([C@@]4(C)N=C(N)[C@]5(C)CC[C@H]4S5(=O)=O)c3)nccc2n1 registered its IC50 at 3
